Cited source: ChEMBL document CHEMBL4402601

- test: MRT in dog at 5 mg/kg, po by UPLC-MS/MS analysis
- Type: ADME, organism-based, Canis lupus familiaris
- settings: in vivo
measured property: MRT
Remember to put the unit after the number in your answer.

Exercise: Kindly indicate its recorded MRT. Item: COC(=O)N[C@H](C(=O)N1CCC[C@H]1C(=O)Nc1ccc([C@@H]2CC[C@@H](c3ccc(NC(=O)[C@@H]4CCCN4C(=O)[C@@H](NC(=O)OC)[C@@H](C)OC)cc3)N2c2cc(F)c(N3CC[Si](C)(C)CC3)c(F)c2)cc1)[C@@H](C)OC
Solution: 17.5 h

====

- test: Metabolic stability in mouse liver microsomes assessed as compound remaining at 1 uM incubated for 60 mins by UPLC-MS/MS analysis
- Assay type: ADME, Microsome
- settings: read-out: Stability
Overview of reported remaining at 1 h, 1 µM across a group of molecules:
Report as a plain number; the unit % is understood.

Exercise: Indicate the recorded remaining at 1 h, 1 µM value for this molecule: COC(=O)N[C@H](C(=O)N1CCC[C@H]1C(=O)Nc1ccc([C@@H]2CC[C@@H](c3ccc(NC(=O)[C@@H]4CCCN4C(=O)[C@@H](NC(=O)OC)C(C)C)cc3)N2c2ccc(C(C)(C)C)cc2)cc1)C(C)C
Solution: 63.5

Exercise: Specify measured remaining at 1 h, 1 µM for COC(=O)N[C@H](C(=O)N1CCC[C@H]1C(=O)Nc1ccc([C@@H]2CC[C@@H](c3ccc(NC(=O)[C@@H]4CCCN4C(=O)[C@@H](NC(=O)OC)[C@@H](C)OC)cc3)N2c2cc(F)c(N3CC[Si](C)(C)CC3)c(F)c2)cc1)[C@@H](C)OC .
Solution: 60.4
